Reference for the values: the supplement of paper PMC8728848

experimental_target: Fuc(a1-4)GlcNAc
protocol_text: glycan array binding signal (z-score within array); higher = stronger binding
condition_context: glycan notation: IUPAC condensed, linker removed
This is one part of a sample in which the strongest signals are shown more often than they occur.
Items are presented alongside their recorded glycan array binding signal (z-score).
metric_name: glycan array binding signal (z-score)

[[record]]
binder = "Epa12 (Candida glabrata) (protein) MGSSHHHHHHSSGLVPRGSHMLEPDNSLQIFDSFLSNPSKYPLGCSPKITNPKKGLSMELYSYPYRKKGSHPCWDPAYLDPNFPRVGYKKNKLIARVDGVSGDINFNFHPKRQCTPIADYLPPNFNYNEPITTTNFTMLLYGYFKPKVTGLHTFDISADDLLFMNFGAGNAFDCCRRDSTADTFGNYVAWAIWGRRIVRNKLTVRLDKGIYYPLRLFFNNRDYYGQMRLTFKTEHGSERITDFSDYFFSVDDTSEGCPGLITYESECADVKSSTVLETDYITIQAEKE"
experimental_result = -0.241

[[record]]
binder = "AidA (Burkholderia cenocepacia) (protein) MSRVTDVLVSFDTETILKKYPNPSKNPAAPTLIDWRYVYMVTNQDNVISGQAGGELDLKAQVGDLIRWRETSLSLGFENQVVFYKFIGNVGNDLISTPTPRVAEASIPVPNTSKPEVPTCQKVANYYWSSECLKVGRVTYHFQFQIIDRNCQSQGCFSWDPFISIHN"
experimental_result = 3.1

[[record]]
binder = "Apa (Mycobacterium tuberculosis), Rv1860 (protein) MHQVDPNLTRRKGRLAALAIAAMASASLVTVAVPATANADPEPAPPVPTTAASPPSTAAAPPAPATPVAPPPPAAANTPNAQPGDPNAAPPPADPNAPPPPVIAPNAPQPVRIDNPVGGFSFALPAGWVESDAAHFDYGSALLSKTTGDPPFPGQPPPVANDTRIVLGRLDQKLYASAEATDSKAAARLGSDMGEFYMPYPGTRINQETVSLDANGVSGSASYYEVKFSDPSKPNGQIWTGVIGSPAANAPDAGPPQRWFVVWLGTANNPVDKGAAKALAESIRPLVAPPPAPAPAPAEPAPAPAPAGEVAPTPTTPTPQRTLPA"
experimental_result = -0.036

[[record]]
binder = "Als3-41 (Candida albicans) (protein) KTITGVFNSFNSLTWSNAATYNYKGPGTPTWNAVLGWSLDGTSASPGDTFTLNMPCVFKFTTSQTSVDLTAHGVKYATCQFQAGEEFMTFSTLTCTVSNTLTPSIKALGTVTLPLAFNVGGTGSSVDLEDSKCFTAGTNTVTFNDGGKKISINVDFERSNVDPKGYLTDSRVIPSLNKVSTLFVAPQCANGYTSGTMGFANTYGDVQIDCSNIHVGITKGLNDWNYPVSSESFSYTKTCSSNGIFITYKNVPAGYRPFVDAYISATDVNSYTLSYANEYTCAGGYWQRAPFTLRWTGYRNSDAGSNGIVIVATTRTVTDSTTAVTTLPFDPNRDKTKTIEILKPIPTTTITTSYVGVTTSYLTKTAPIGETATVIVD"
experimental_result = 7.63

[[record]]
binder = "PEB3 (Campylobacter jejuni), Q0PBL7 (protein) MKKIITLFGACALAFSMANADVNLYGPGGPHTALKDIANKYSEKTGVKVNVNFGPQATWFEKAKKDADILFGASDQSALAIASDFGKDFNVSKIKPLYFREAIILTQKGNPLKIKGLKDLANKKVRIVVPEGAGKSNTSGTGVWEDMIGRTQDIKTIQNFRNNIVAFVPNSGSARKLFAQDQADAWITWIDWSKSNPDIGTAVAIEKDLVVYRTFNVIAKEGASKETQDFIAYLSSKEAKEIFKKYGWRE"
experimental_result = -0.82

[[record]]
binder = "rPitB (Streptococcus pneumoniae), A0A0I7U739 (protein) MSEIEIINAKKIYHDVPVIENLNITIPKGSLFTLLGASGCGKTTLLRMIAGFNSIKDGEFYFDDTKINNMEPSKRNIGLVFQNYAIFPHLTVRDNVAFGLMQKKVPKEELIQQTNKYLELMQIAQYAD"
experimental_result = -0.579

